Tested on: GluN1/GluN2C (Rattus norvegicus, UniProt P35439+Q00961)
Sequence (Q00961 20-1237, other chains not shown): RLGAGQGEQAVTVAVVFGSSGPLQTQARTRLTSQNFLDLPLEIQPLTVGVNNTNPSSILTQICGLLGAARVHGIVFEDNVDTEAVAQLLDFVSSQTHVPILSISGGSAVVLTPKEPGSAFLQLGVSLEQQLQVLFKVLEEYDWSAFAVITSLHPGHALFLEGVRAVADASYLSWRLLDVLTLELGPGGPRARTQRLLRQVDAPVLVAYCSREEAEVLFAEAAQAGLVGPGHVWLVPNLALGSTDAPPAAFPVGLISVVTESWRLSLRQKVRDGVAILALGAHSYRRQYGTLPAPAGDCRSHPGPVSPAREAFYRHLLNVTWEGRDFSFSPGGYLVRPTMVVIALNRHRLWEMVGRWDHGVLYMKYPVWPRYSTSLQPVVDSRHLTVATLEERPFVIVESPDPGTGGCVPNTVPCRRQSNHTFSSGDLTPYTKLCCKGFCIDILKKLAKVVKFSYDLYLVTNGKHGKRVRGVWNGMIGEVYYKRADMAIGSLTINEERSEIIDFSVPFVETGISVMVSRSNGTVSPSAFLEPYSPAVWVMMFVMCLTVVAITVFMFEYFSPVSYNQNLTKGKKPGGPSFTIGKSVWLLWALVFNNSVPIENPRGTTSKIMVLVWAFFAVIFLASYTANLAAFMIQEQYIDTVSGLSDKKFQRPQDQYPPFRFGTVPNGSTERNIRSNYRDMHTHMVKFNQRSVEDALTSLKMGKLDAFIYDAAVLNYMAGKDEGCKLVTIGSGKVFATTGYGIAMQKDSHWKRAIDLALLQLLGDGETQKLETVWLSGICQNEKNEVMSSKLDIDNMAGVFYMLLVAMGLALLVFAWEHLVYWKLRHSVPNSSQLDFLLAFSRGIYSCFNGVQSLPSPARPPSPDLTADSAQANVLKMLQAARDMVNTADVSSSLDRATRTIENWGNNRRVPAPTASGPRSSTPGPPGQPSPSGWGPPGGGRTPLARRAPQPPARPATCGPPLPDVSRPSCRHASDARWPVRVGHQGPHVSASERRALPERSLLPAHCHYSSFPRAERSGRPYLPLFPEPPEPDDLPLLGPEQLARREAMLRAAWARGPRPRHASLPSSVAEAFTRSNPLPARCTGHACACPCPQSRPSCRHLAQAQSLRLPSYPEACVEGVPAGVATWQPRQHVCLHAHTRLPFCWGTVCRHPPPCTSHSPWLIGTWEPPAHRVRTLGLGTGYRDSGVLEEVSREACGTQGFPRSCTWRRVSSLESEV
Test details: Two-electrode voltage-clamp recordings, Xenopus laevis oocytes, GluN1/GluN2C
Type: cell-based
Set-up: GluN2B (NM_012574.1), GluN2C (NM_012575.3), and GluN2D (NM_022797.2) were provided by; expressed in transfected cells; host or cells: Xenopus laevis oocytes (cRNA injection)
Reported conditions: 100 μM glutamate, 30 μM glycine; read-out: IC50 GluN2C [95% CI]
In this section we review reported IC50 values for a set of compounds.

Compound	Readout unit	IC50
O=C(O)CC(F)(F)C(=O)N1N=C(c2c(-c3ccc(Cl)cc3)c3ccccc3[nH]c2=O)C[C@@H]1c1ccc(Cl)cc1 [(R)-(+)-2i]	nM	510
O=C(CCc1nnn[nH]1)N1N=C(c2c(-c3ccc(Cl)cc3)c3ccccc3[nH]c2=O)CC1c1ccc(Cl)cc1 (stereo not shown)	nM	570
N#CCCC(=O)N1N=C(c2c(-c3ccc(Cl)cc3)c3ccccc3[nH]c2=O)CC1c1ccc(Cl)cc1 (stereo not shown)	nM	99000
NC(=O)CC(F)(F)C(=O)N1N=C(c2c(-c3ccc(Cl)cc3)c3ccccc3[nH]c2=O)CC1c1ccc(Cl)cc1 (stereo not shown)	nM	380
O=C(O)CC(F)(F)C(=O)N1N=C(c2c(-c3ccc(Cl)cc3)c3ccccc3[nH]c2=O)CC1c1ccc(Cl)cc1 (stereo not shown)	nM	350
CN(C)C(=O)CC(F)(F)C(=O)N1N=C(c2c(-c3ccc(Cl)cc3)c3ccccc3[nH]c2=O)CC1c1ccc(Cl)cc1 (stereo not shown)	nM	4100
CNC(=O)CC(F)(F)C(=O)N1N=C(c2c(-c3ccc(Cl)cc3)c3ccccc3[nH]c2=O)CC1c1ccc(Cl)cc1 (stereo not shown)	nM	670

----------
Test details: Mouse plasma and brain pharmacokinetics, IV administration
Format: in vivo
Reported conditions: male, C57BL/6, mouse, plasma, intravenous, 5 mg/kg, 5 mg/kg IV; 3 hr; read-out: plasma concentration, Mean
Measurement type: concentration at 3 h (ng/mL)

Compound	Readout unit	Value observed
O=C(O)CC(F)(F)C(=O)N1N=C(c2c(-c3ccc(Cl)cc3)c3ccccc3[nH]c2=O)CC1c1ccc(Cl)cc1 (stereo not shown)	ng/mL	7.64

----------
Tested on: CYP3A4 (Homo sapiens)
Sequence (P08684 whole entry): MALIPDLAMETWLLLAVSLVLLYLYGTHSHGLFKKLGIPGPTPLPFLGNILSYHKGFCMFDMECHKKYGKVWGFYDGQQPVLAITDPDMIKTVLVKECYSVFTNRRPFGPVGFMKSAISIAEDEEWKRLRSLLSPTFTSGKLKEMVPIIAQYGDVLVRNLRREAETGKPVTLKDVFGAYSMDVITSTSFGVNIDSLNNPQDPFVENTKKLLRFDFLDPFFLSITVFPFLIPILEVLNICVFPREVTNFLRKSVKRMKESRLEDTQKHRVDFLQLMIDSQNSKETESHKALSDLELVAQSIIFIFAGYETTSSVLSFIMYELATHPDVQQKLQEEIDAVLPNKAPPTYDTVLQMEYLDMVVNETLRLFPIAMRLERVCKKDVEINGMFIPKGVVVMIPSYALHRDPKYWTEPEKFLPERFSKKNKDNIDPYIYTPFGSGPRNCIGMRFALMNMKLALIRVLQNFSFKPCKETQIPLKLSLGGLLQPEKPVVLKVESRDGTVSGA
pIC50: −log10 of the molar value.
In this section we review reported pIC50 values for a set of molecules.
Measurement type: pIC50

Molecule	Value prefix	Value observed
O=C(CC(F)(F)C(=O)N1N=C(c2c(-c3ccc(Cl)cc3)c3ccccc3[nH]c2=O)CC1c1ccc(Cl)cc1)OCc1ccccc1 (centres unmarked) [2p]	<	4.70
NC(=O)CC(F)(F)C(=O)N1N=C(c2c(-c3ccc(Cl)cc3)c3ccccc3[nH]c2=O)CC1c1ccc(Cl)cc1 (centres unmarked) [2k]	=	5.70
O=C(O)CCC(=O)N1N=C(c2c(-c3ccc(Cl)cc3)c3ccccc3[nH]c2=O)CC1c1ccc(Cl)cc1 (centres unmarked) [2a]	=	4.77
CC(C)OC(=O)CC(F)(F)C(=O)N1N=C(c2c(-c3ccc(Cl)cc3)c3ccccc3[nH]c2=O)CC1c1ccc(Cl)cc1 (centres unmarked) [2m]	=	5.20
CNC(=O)CC(F)(F)C(=O)N1N=C(c2c(-c3ccc(Cl)cc3)c3ccccc3[nH]c2=O)CC1c1ccc(Cl)cc1 (centres unmarked) [2q]	=	5.11

Recorded values, source paper PMC10485906.
